From: the nanobody polyreactivity screen of Harvey et al. (2022)

Assay: yeast display, Sf9 membrane polyspecificity reagent, FACS + sequencing; frameworks hold sequencing errors
Property label: polyreactivity (PSR sort gate)

{"Construct sequence": "QVQIVESGGGKVQEGGSLRLSCAASGITFTWYDMGWYRQAPGKERELVAAITTDGGSTYYADSVKGRFTISRDNAKNTVYLQINSLKPEDTAVYYCAAAGYVPFPVVYEYWGQGTQVTVSS", "Property label": "polyreactivity (PSR sort gate)", "Recorded value": "high polyreactivity"}
{"Construct sequence": "QVQLVESGGGLVQAGGSLRLSWAASGGIFKVYGMRWYRQAPGKERELVAAISWTTGGTYYADSVKGRFTISRDNAKNTVYLQMNSLKPEDTAVYYCAAEYADSWSAFDWNYYYWGQGTQVTVSS", "Property label": "polyreactivity (PSR sort gate)", "Recorded value": "high polyreactivity"}

====

Test: yeast display, Sf9 membrane polyspecificity reagent, FACS + sequencing; frameworks hold sequencing errors
Property label: polyreactivity (PSR sort gate)

{"Construct sequence": "QVQHVESRGGLVQAGGSLRLSCAASGSTFDGNAMGWYRQAPGTETELVAGISYRGGSTYYADSVKGRFTISRDYAKNSVYLQMNRLKPEDTAVYYCAADDYVYWLFDYWGQGTQVTVSS", "Recorded value": "low polyreactivity"}
{"Construct sequence": "QVQLVESGLCLVQAGGSLRLSCAASGRIFRSYLMGWYRPAPGKERELVAAISNSGTRTYYADSVKGRFTISRDNAKNTVYLQKNSLKPEDTAVYYFITRRGRGSVDYDYWGQGSQVTVSS", "Recorded value": "high polyreactivity"}
{"Construct sequence": "QVQLEESGGGLVQAGGSLRLSCAASGRTSRVYAMGWYRQAPGKERELVAAITWRGGNTYYADSVKGRFTISRDNAKNTVYLQMNSLKPEDTAVYYCARDNGSPYHYYYWGQGTQVTVSS", "Recorded value": "high polyreactivity"}
{"Construct sequence": "QIQLVESGGGLVQAGGSLRLSCAASGSIFSGYAMGWYRQAPGKERELVAAITSGGSTDYADSVKGRFTISRDNAKNTVYLQMNSLKPEDTAVYYCAAEGGYSSYGYDYWGQGTQVTVSS", "Recorded value": "low polyreactivity"}
{"Construct sequence": "QVQLVESGGGLVQAGGSLRLSCAASGFIFGYNGMGGYRQAPGKERELVAGITYSDGSTYYADSVKGRFTISRDNAKNTVYLQMNSLKPEDTAVYYCAVDVIYYWAEDYDYWGQGTQVTVSS", "Recorded value": "low polyreactivity"}
{"Construct sequence": "QVQLVESGRGLVQAGGRLRLSCAASGFTFNRYTMGGYRQAPGKEREFVASITRSGGSTYYADSVKGRFTISRDNAKNTVYLQMNSLTPEDTAVYYCAPVYQYSSRYDHWGQGTQVTVSS", "Recorded value": "high polyreactivity"}
{"Construct sequence": "QVQLVESGGGLVQAGGSLSLSCAATGINYGDYAMGWYRQAPGKERELVAAISSDTSTNYADSVKGRFTISRDNAKNTVYLQMNSLKPEDTAVYECAAEGSYYGWYQGFDYWGQGTQVTVSS", "Recorded value": "low polyreactivity"}
{"Construct sequence": "QVQLVESGRGLVQAGGSLRLSCAASGRIGKYAMGWYRQAPGKERELVATISSTGTTNYADSVKGRFTISRDNAKNTVYLQMNSLKPDDTAVYYCAAVRHKEYDYWGQGTQVTVSS", "Recorded value": "high polyreactivity"}
{"Construct sequence": "QVQLVESGGVLVQAGGSLRFSCAASGFFFSSNAIGWYRQAPGKERELVAAISRSVGSTYYADSVKGRFTISRDNAKNTVYLQMNSLKPEDTAVYYCAARIGSYRKYRYDYWGQGTQVTVSS", "Recorded value": "high polyreactivity"}
{"Construct sequence": "QVQLVESGGGLVQAGGILRLSCDASGRIFRANAMGWYRQAPGKERELVASITYSGGSTYYADSVKGRFTISRDNAKNTVYLPMNSLNPEDTAVYYCARAGISSGGYYYWGQGTQVTVSS", "Recorded value": "low polyreactivity"}

Bench note: what polyreactivity (PSR sort gate) did QVQLVESGGGLVQAGGSLRLSCAASGRIFYVNAMGWYRQAPGKERELVATIRYSGGSTYYADSVKGRFTISRDNAKNTVYLQMNSLKPEDTAVYYCAARVADYYPGRGYGYWGQGTQVTVSS show?
high polyreactivity

====

Test: yeast display, Sf9 membrane polyspecificity reagent, FACS + sequencing; frameworks hold sequencing errors
Property label: polyreactivity (PSR sort gate)

Answered cases to consult:
{"Construct sequence": "QVQLVESGGGLVQAGGSLRLSCADSGLTFEGYAMGWNRQAPGKERELVAAITWSGGNTYYADSVKGRFTSSRDNAKKTVYLQMNSLKPEDTAVYYCAAQRPSRDSRPFEYWGQGTQVTVSS", "polyreactivity (PSR sort gate)": "low polyreactivity"}
{"Construct sequence": "QVQLVESGGGLVQAGGSLRLSCAASGSIFYYNAMGWYRQAPGKERELVAAIRRSGGRTYYADSVKGRFTISRDNAKNTVYLQMNSLKPEDTAVYYCAAVHYDRVTGQVDHDYWGQGTQVTVSS", "polyreactivity (PSR sort gate)": "high polyreactivity"}
{"Construct sequence": "QVQLVESGGGLVQAGGSLRLSCAASGSTFTVNAMGWYRQAPGKERELVAAISWRGGTTYYADSVKGRFTISRDNAKNTVYLQMNSLKPEDTAVYYCAATSYRRSGRYYYWGQGTQVTVSS", "polyreactivity (PSR sort gate)": "high polyreactivity"}
{"Construct sequence": "QVQLVESGVGLVQAGGSLRLSCAASGSTFRYYGMGWYRQAPGKEMELVAAISSSGGSTYYADSLKGRFTISRDNAKNTVSLQMNSLKPEDTAVYYCAAGSRFVSSRLYYWGQGTQVTVSS", "polyreactivity (PSR sort gate)": "high polyreactivity"}
{"Construct sequence": "QVQLVESGGGLVQAGGSLRLSCAASGRTFTPYTRGWYRQAPGKEREFVPAIRTGGNTYYADSVKGRFTISRDNAKNTVYLQMNSLKPEDTAVYYCAARDRIGYRLYYWGQGTQVTVSS", "polyreactivity (PSR sort gate)": "high polyreactivity"}
{"Construct sequence": "QVQLVESGGGLVQAGGSLRLSCAASGRTFRHNAMGWYRQAPGKERELVAAISSSGTNTHYADSVKGRFTISRDNAKNTVYLQMNSLKPEDTAVYYCATVVRSAAYAFDYWGQGTQVTVSS", "polyreactivity (PSR sort gate)": "high polyreactivity"}

// batch mode: one polyreactivity (PSR sort gate) value per listed entry
1. QVQLVESGGGLVQAGGSLRLSCAASGSTFPYNAMGWYRQAPGKDRELVAAITWRAGRTYYADSVKGRFTISRDNAKNTVYLQMNSLKPEDTAVYYCAKSYQRGVNHYEYWGQGTQVTVSS
2. QVQLVESGGGLVQAGGSLRLSCAASGSTFSGYVMGWYRQAPGKERELVAAITGRGGNTYYADSVKGRFTISRDNGKNTVYLQMNSLKPEDTAVYYCAAARRSYQYGYWGQGTQVTVSS
3. QVHLVESGGGLVQAGDSLRLSCASSGIIFYDYAMGWYRPAPGKERELVAAITSSGGSTYYADSVKGRFTISRDNAKNTVYLQMNSLIPEDTAVYYCAAATRGSGRRYDYLGQGTQVTVSS
4. QVQLVESGGGLVQAGGSLRLSCAASGFTFPYYAMGWYRQAPGKERELVAGISWDGDSTYYADSVKGRFTISRDNAKNTVYLQMNSLKPEDTAVYYCAAGYITYYYGEYGYWGQGTQVTVSS
5. QVQLVESGGGLVQAGGSLRLSCAASGSIFSYYAMGWYRQAPGKERELVAAISKRGASTYYADSVKGRFTISRDNAKNTVYLQMNSLKPEDTAVYYCNRVLYDHSFPYNRGYDYWGQGTQVTVSS

1: high polyreactivity; 2: high polyreactivity; 3: high polyreactivity; 4: low polyreactivity; 5: high polyreactivity

====

Assay: yeast display, Sf9 membrane polyspecificity reagent, FACS + sequencing; frameworks hold sequencing errors
Property label: polyreactivity (PSR sort gate)

Answered cases to consult:
{"Construct sequence": "QVQLVESGGGLVQAGGSLRLSCAASGGTFVYNAMGWNRQAPGKERELVAAISRSGSRTYYADSVKGRFTISRDNAKNTVYLQMNSLKPEDTAVYYCAARGYYPEYNHWGQGSQVTVSS", "Recorded value": "high polyreactivity"}
{"Construct sequence": "QVQLVESGGGLVQAGGSLRLSCAASGRTLLKYAMGWYRQATGKEREFVAAITRSGSSTYYADSVKGRFTISRDNAKNTVYLQMNSLKPEDTAVYYCAARLYRVTLDYWGQGTQVTVSS", "Recorded value": "low polyreactivity"}
{"Construct sequence": "QVQLVESGGGLVQAGGSLLLSCAASGSIFFYAMGSYRQAPGKERELVADITYTGGSKYADSVKGRFTISRDNAKNTVYLQMNSLKPEDTAVYYCAKLDGGLFDYWGQGTQVTVSS", "Recorded value": "low polyreactivity"}
{"Construct sequence": "QVQIVESGGGVVQAGGSLRLICAASGSTFNPYAMGSYRQAPGKERELVAAIRGRSGRTYYADSVKGRFTISRDNAKNTVYLQMTSLIPEDTAVYYCAARFSEYRTHPSEVYYWGQGTQVTVSS", "Recorded value": "high polyreactivity"}

With those in mind, consider the next sequence.
Bench note: what polyreactivity (PSR sort gate) did QVQLVESGGGLVQAGGSLRLSCAASGFTFKGNAMGWYIQAPGKERELVATITQSAGYTYYADSVKGRFTISRDNAKNTVYLQLNSLKPEDTAVYYCNADPITLYYYSWYNYWGQGTQVTVSS show?
low polyreactivity
